Test system: rat mesenteric arteries
experimentDescription: Vasoreactivity in rat mesenteric arteries in vitro (relaxation of U46619-contracted vessels, tension myograph)
setupConditions: Rattus norvegicus; 10 μM; U46619-contracted third-order arteries
# cutoff 10% applies to inhibition at 10 µM; >= gives 1.0, < gives 0.0

{"molecule": "C[C@H](NC(=O)c1cn(Cc2ccccc2)c2ccc(Br)cc2c1=O)C(=O)O [Compound 189]", "tgt": "rat mesenteric arteries", "assignedLabel": 1.0}
{"molecule": "O=C(O)CNC(=O)c1cn(Cc2ccccc2)c2ccccc2c1=O [Compound 117]", "tgt": "rat mesenteric arteries", "assignedLabel": 0.0}
{"molecule": "CCn1cc(C(=O)NCC(=O)O)c(=O)c2ccccc21 [Compound 171]", "tgt": "rat mesenteric arteries", "assignedLabel": 0.0}
{"molecule": "O=C(O)CNC(=O)c1c[nH]c2ccccc2c1=O [Compound 178]", "tgt": "rat mesenteric arteries", "assignedLabel": 1.0}
{"molecule": "O=C(O)CNC(=O)c1cn(Cc2ccccc2F)c2ccccc2c1=O [Compound 173]", "tgt": "rat mesenteric arteries", "assignedLabel": 1.0}

Q. Check if inhibition at 10 µM >= 10% (inclusive). Item: O=C(O)CNC(=O)c1cn(Cc2ccc(OC(F)(F)F)cc2)c2ccccc2c1=O [Compound 176]
A. 1.0

Q. Check if inhibition at 10 µM >= 10% (inclusive). Item: CC(C)(C)OC(=O)CNC(=O)c1cn(Cc2ccccc2)c2ccc(Br)cc2c1=O [Compound 28]
A. 1.0

Q. Check if inhibition at 10 µM >= 10% (inclusive). Item: CC(C)(C)OC(=O)n1cc(C(=O)O)c(=O)c2ccccc21 [Compound 81]
A. 0.0
